As shown below, each of these compounds has a reported inhibition at 10 µM value.
# Tested on: IICR (IP3 induced calcium release) in CHO cells
# test.details: Assay of IICR (IP3 induced calcium release)-inhibiting action
# Format: cell-based, Chinese hamster
# reported.conditions: Cricetulus griseus, CHO, test compound 10 μmol; CHO cells, 10 μM ATP; read-out: IICR level (percentage of inhibition)
observed.property: inhibition at 10 µM (%)

> print(dat)
                            compound.smiles                            assayed.target    observed.property  units.label  quantitative.readout
1             CC(C)(C)N(CCO)CCC(=O)c1ccncc1  IICR (IP3 induced calcium release) in CHO cells  inhibition at 10 µM            %                    20
2             O=C(CCN(CCO)Cc1ccccc1)c1nccs1  IICR (IP3 induced calcium release) in CHO cells  inhibition at 10 µM            %                    40
3            O=C(CCN(CCO)CCO)c1ccc2ccccc2c1  IICR (IP3 induced calcium release) in CHO cells  inhibition at 10 µM            %                    20
4  CC(C)(C)N(CCC(=O)c1ccc(Cc2ccccc2)cc1)Cc1ccccc1  IICR (IP3 induced calcium release) in CHO cells  inhibition at 10 µM            %                    40
5        CN(CCC(=O)c1cccc2ccccc12)Cc1ccccc1  IICR (IP3 induced calcium release) in CHO cells  inhibition at 10 µM            %                    30
6          CC(C)N(CCC(=O)c1ccncc1)Cc1ccccc1  IICR (IP3 induced calcium release) in CHO cells  inhibition at 10 µM            %                    30
7          CCN(CCC(=O)c1ccc(Cl)s1)Cc1ccccc1  IICR (IP3 induced calcium release) in CHO cells  inhibition at 10 µM            %                    30
8     Cc1ccc(C(=O)CCN(Cc2ccccc2)C(C)(C)C)s1  IICR (IP3 induced calcium release) in CHO cells  inhibition at 10 µM            %                    70

---

As shown below, each of these compounds has a reported inhibition at 100 µM value.
# System: IICR (IP3 induced calcium release) in CHO cells
# test.details: Assay of IICR (IP3 induced calcium release)-inhibiting action
# Assay type: cell-based, Chinese hamster
# reported.conditions: Cricetulus griseus, CHO, test compound 100 μmol; CHO cells, 10 μM ATP; read-out: IICR level (percentage of inhibition)
observed.property: inhibition at 100 µM

> print(dat)
                                    compound  result
 1       CC(C)N(CCC(=O)N1CCCCCC1=O)Cc1ccccc1     20%
 2  Cc1cccc2cc(C(=O)CCN(c3ccccc3)c3ccccc3)ccc12     90%
 3       CC(C)N(CCC(=O)c1ccc(Br)s1)Cc1ccccc1     90%
 4  O=C(CCN(CCO)Cc1ccccc1)c1ccc2c(Cl)cccc2c1    100%
 5          O=C(CCN(CCO)c1ccccc1)c1ccc(Br)s1     70%
 6             O=C(CCN(CCO)c1ccccc1)c1ccccc1     30%
 7  CC(C)N(CCC(=O)c1ccc(-c2ccccc2)cc1)Cc1ccccc1     90%
 8  O=C(CCN(CCO)c1ccccc1)c1ccc(-c2ccccc2)cc1     30%
 9        Cc1csc(C(=O)CCN(Cc2ccccc2)C(C)C)c1    100%
10  N[C@@H](CSSC[C@@H](C(=O)O)N(CCC(=O)c1ccc(Cl)s1)CCC(=O)c1ccc(Cl)s1)C(=O)O     70%
11  CC(CN(CCO)C(C)(C)C)C(=O)c1ccc(F)cc1 (centres unmarked)     20%
12                CC(C)N(CCO)CCC(=O)c1ccncc1     80%
13              O=C(CCNCc1ccccc1)c1ccc(Br)s1     50%
14             CCN(CCC(=O)c1cccnc1)Cc1ccccc1     50%
15   CN(CCC(=O)c1ccc(Cc2ccccc2)cc1)Cc1ccccc1     90%
16       CC(C)(C)N(CCC(=O)c1cnccn1)Cc1ccccc1     90%
17        Cc1ccc(C(=O)CCN(Cc2ccccc2)C(C)C)o1     80%
18  CC(C)(C)N(CCC(=O)c1ccc2c(c1)OCCO2)Cc1ccccc1    100%
19       CC(C)(C)N(CCC(=O)c1ccccn1)Cc1ccccc1    100%
20           CN(CCC(=O)c1ccc(Cl)s1)Cc1ccccc1     40%
21        CC(C)(C)N(CCC(=O)c1nccs1)Cc1ccccc1     80%
22                 CC(C)N(CCO)CCC(=O)c1ccsc1     50%
23       CC(C)N(CCC(=O)c1ccc(Cl)s1)Cc1ccccc1     70%
24           CC(C)N(CCC(=O)c1ccco1)Cc1ccccc1     70%
25                 O=C(CCNCCc1ccccc1)c1ccco1     10%
26        CC(C)N(CCC(=O)c1ccc(I)s1)Cc1ccccc1     70%
27  COC(=O)C(CSSCC(NCCC(=O)c1ccc(C)s1)C(=O)OC)NCCC(=O)c1ccc(C)s1 (centres unmarked)     83%
28             CCN(CCC(=O)c1ccccn1)Cc1ccccc1     90%
29            O=C(CCN(CCO)Cc1ccccc1)c1cnccn1     90%
30           CCCCN(CCC(=O)c1ccncc1)Cc1ccccc1     51%
31     Cc1cccc2cc(C(=O)CCN(C)Cc3ccccc3)ccc12     90%
32       O=C(CCN(CCO)Cc1ccccc1)c1cc(Cl)sc1Cl     70%
33                    CN(CCO)CCC(=O)c1cnccn1     30%
34            CN(CCC(=O)c1ccc[nH]1)Cc1ccccc1     20%
35                 CC(C)N(CCO)CCC(=O)c1nccs1     60%

---

# System: IICR (IP3 induced calcium release) in CHO cells
# test.details: Assay of IICR (IP3 induced calcium release)-inhibiting action
# Type: cell-based, Chinese hamster
# reported.conditions: Cricetulus griseus, CHO, test compound 30 μmol; CHO cells, 10 μM ATP; read-out: IICR level (percentage of inhibition)
observed.property: inhibition at 30 µM

compound	result
CC(C)(C)N(CCC(=O)c1ccc(Cc2ccccc2)cc1)Cc1ccccc1 [Example 105]	70%
CC(C)(C)N(CCC(=O)c1ccc(Br)cc1)Cc1ccccc1 [Example 324]	40%
CCN(CCC(=O)c1ccc(Cl)s1)Cc1ccccc1 [Example 278]	20%
O=C(CCN1CCCC1CO)c1cnccn1 (centres unmarked) [Example 282]	20%
CC(C)(C)N(CCC(=O)c1cc2ccccc2s1)Cc1ccccc1 [Example 285]	80%
CC(C)(C)N(CCC(=O)c1cnccn1)Cc1ccccc1 [Example 213]	80%
COC(=O)C(CSSCC(NCCC(=O)c1ccco1)C(=O)OC)NCCC(=O)c1ccco1 (centres unmarked) [Example 401, N,N-bis(2-furoylethyl)cystinemethylester]	1%
CCN(CCC(=O)c1ccco1)Cc1ccccc1 [Example 142]	50%
CCCCN(CCC(=O)c1ccc(Br)cc1)Cc1ccccc1 [Example 375]	33%
CCCCN(CCO)CCC(=O)c1ccc(Br)s1 [Example 293]	50%
CC(C)N(CCO)CCC(=O)c1ccc[nH]1 [Example 170]	0%
CC(C)N(CCC(=O)n1ccnc1)Cc1ccccc1 [Example 224]	20%
O=C(CCN(c1ccccc1)c1ccccc1)c1cccc2ccccc12 [Example 70, 2-N-diphenylaminoethyl naphthylketone]	0%
CC(C)N(CCO)CCC(=O)c1cccn1C [Example 169]	0%
Cc1ccc(C(=O)CCN(Cc2ccccc2)C(C)C)cc1 [Example 65]	10%
Cc1ccc(C(=O)CCN(C)Cc2ccccc2)o1 [Example 241]	0%
CC(C)(C)N(CCC(=O)c1ccsc1)Cc1ccccc1 [Example 238]	0%

---

# System: SOCE (store operated calcium entry) in CHO cells
# test.details: Assay of SOCE (store operated calcium entry)-inhibiting action
# Assay type: cell-based, Chinese hamster
# reported.conditions: test compound 100 μmol; CHO cells, thapsigargin
Threshold rule: SOCE level (percentage of inhibition) greater than or equal to 10% is 1; below that, -1.

> print(dat)
                                   molecule  assigned.class
1  CC(C)(C)N(CCO)CCC(=O)c1ccc(Br)s1 [Example 332]               1
2  CCc1nccnc1C(=O)CCN(CCO)C(C)C [Example 252]              -1
3  O=C(CCNCCSSCCNCCC(=O)c1ccc2ccccc2c1)c1ccc2ccccc2c1 [Example 370]              -1
4  O=C(CCNCCSSCCNCCC(=O)c1cccs1)c1cccs1 [Example 369]               1
5   CC(C)N(CCO)CCC(=O)c1ccco1 [Example 172]              -1
6  O=C(CCNCCSSCCNCCC(=O)c1ccc(Br)s1)c1ccc(Br)s1 [Example 340]               1
7  CC(C)N(CCC(=O)c1ccc(Cc2ccccc2)cc1)Cc1ccccc1 [Example 103]               1
